Ref: PubChem BioAssay (NCI)

Test system: SF-268 CNS
Test: NCI-60 one-dose screen, 48 h (100 = growth as untreated, 0 = no growth, -100 = all killed)
Conditions: 10 µM unless noted
The panel holds about 83,000 compounds, 20% with a hit somewhere; the sample as a whole holds those more often.

- molecule: "C=CCCCCCCCCC(=O)[O-].C=CCCCCCCCCC(=O)[O-].[Zn+2]"
  growth / %: 106
- molecule: "CCCCCCCCCCCCNC(c1ccccc1)C(O)c1ccccc1 (stereo not given)"
  growth / %: 79
- molecule: "CC[S][Hg][Cl]"
  growth / %: 103
- molecule: "C[S+]1C=Cc2ccccc2C1c1ccc(Cl)cc1 (stereo not given)"
  growth / %: 47.1
- molecule: "CCN(CC)c1ccc2c(c1)OC(N)=C(C#N)C2c1cc(OC)c2c(c1)OCO2 (stereo not given)"
  growth / %: 21.3

* * *

System: HL-60(TB) leukemia
Test: NCI-60 one-dose screen, 48 h (100 = growth as untreated, 0 = no growth, -100 = all killed)
Settings: 10 µM unless noted
This is part of a sample that, as a whole, favours compounds with a hit. Of some 83,000 tested, about 20% had one in any assay.
attribute_measured: growth (%)

- compound: "CC(C)OC(=O)[C@H](C)NP(=O)(Oc1ccccc1)C1CCCN(O)C1=O (stereo partly drawn)"
  target_desc: "HL-60(TB) leukemia"
  attribute_measured: "growth"
  val: 94.1
- compound: "COc1ccc([As]=[As]c2ccc(OC)c(NCS(=O)(=O)O)c2)cc1NCS(=O)(=O)O (stereo not drawn)"
  target_desc: "HL-60(TB) leukemia"
  attribute_measured: "growth"
  val: -7.43
- compound: "CC(=O)[C@H]1CC[C@H]2[C@@H]3CC[C@H]4C[C@H](N)CC[C@]4(C)[C@H]3CC[C@]12C"
  target_desc: "HL-60(TB) leukemia"
  attribute_measured: "growth"
  val: 63.4

* * *

System: OVCAR-4 ovarian
Assay: NCI-60 one-dose screen, 48 h
Settings: 10 µM unless noted
Compounds without any hit were thinned out: in the full panel of roughly 83,000, 20% have a hit. The source made the active and inactive calls. How the source made its calls: active means growth percent below 10; inactive means the rest.
Outcome codes: 1 (yes) for active, 0 (no) for inactive

- compound: "C=CC12CCN(CC1)C(C(O)c1ccnc3ccc(OC)cc13)C2 (stereo not drawn)"
  qualitative_label: "0 (no)"
- compound: "O=Cc1cn(Cc2ccc(Cl)cc2)c2ccccc12"
  qualitative_label: "0 (no)"
- compound: "CC(C)[C@]12O[C@H]1[C@@H]1O[C@]13[C@]1(O[C@H]1C[C@H]1c4c(C(=O)c5ccccc5)oc(OC(=O)c5ccccc5)c4CC[C@@]13C)[C@@H]2O"
  qualitative_label: "0 (no)"
- compound: "COc1ccc(C2=N[C@@H](Cc3ccccc3)C(=O)Nc3ccsc32)cc1"
  qualitative_label: "0 (no)"
- compound: "CC(C)=CCC[C@H](C(=O)O)[C@@H]1CC[C@]2(C)C3=C(CC[C@@]12C)[C@@]1(C)CC[C@H](O)C(C)(C)[C@@H]1CC3"
  qualitative_label: "0 (no)"
- compound: "C[C@]12C[C@@H](CO)[C@H](O)C[C@@H]1CC[C@@H]1[C@@H]2CC[C@]2(C)[C@@H](O)CC[C@@H]12"
  qualitative_label: "0 (no)"
- compound: "COc1cc2c(=O)n(C3CCCCCCC3)c3c4cc[nH]c4ncc3c2cc1OC"
  qualitative_label: "1 (yes)"
- compound: "CC1=C(CCCOC(=O)CN)C2=C(C)C3(CC3)[C@@](C)(O)C(=O)C2=C1"
  qualitative_label: "0 (no)"

* * *

growth overview
Tested on: OVCAR-4 ovarian
Assay: NCI-60 one-dose screen, 48 h (100 = growth as untreated, 0 = no growth, -100 = all killed)
Conditions: 10 µM unless noted
This is part of a sample that, as a whole, favours compounds with a hit. Of some 83,000 tested, about 20% had one in any assay.
attribute_measured: growth (%)

- compound: "COC(=O)[C@H](Cc1ccccc1)NC(=O)c1csc([C@@H](C[C@H](C(C)C)N(C)C(=O)[C@@H](NC(=O)[C@H]2CCCN2C)C2CC2)OC(C)=O)n1"
  attribute_measured: "growth"
  val: 59.5
- compound: "CC[C@H](C)[C@@H]1OC(=O)C(C)(C)[C@H](O)[C@H](Cc2ccccc2)OC(=O)[C@H](C(C)C)OC(=O)[C@@H](NC(=O)c2cccc(NC=O)c2O)[C@@H](C)OC1=O"
  attribute_measured: "growth"
  val: 28.7
- compound: "Cc1sc2c(c1C)C(c1ccc(Cl)cc1)=N[C@@H](CC(=O)OC(C)(C)C)c1nnc(C)n1-2"
  attribute_measured: "growth"
  val: 42.6
- compound: "CCOP(=O)(NC[C@H]1O[C@](O)(CO)[C@@H](O)[C@@H]1O)OCC"
  attribute_measured: "growth"
  val: 103
- compound: "COC(=O)[C@@H](C)C[C@H](Cc1ccccc1)NC(=O)c1nc([C@@H](C[C@H](C(C)C)N(C)C(=O)[C@@H](NC(=O)[C@H]2CC(=O)CCN2C)C(C)C)OC(C)=O)sc1C(C)C"
  attribute_measured: "growth"
  val: 45.8
- compound: "CC(=O)O[C@H](C[C@H](C(C)C)N(C)C(=O)[C@@H](NC(=O)[C@H]1CCCCN1C)C(C)C)c1nc(C(=O)N[C@@H](Cc2ccccc2)C[C@H](C)C(=O)O)c(CCOCc2ccccc2)s1"
  attribute_measured: "growth"
  val: 37
- compound: "C=CCn1cc(C=C2C(=O)N(C)C(=O)N(C)C2=O)c2ccccc21"
  attribute_measured: "growth"
  val: 97.6
- compound: "CC1(C)CN1P(=O)(N1CC1(C)C)N1CC1(C)C (stereo unspecified)"
  attribute_measured: "growth"
  val: 97.9
- compound: "O=C1OCC2=C1C(c1ccccc1)c1cc3c(cc1N2)OCO3 (stereo unspecified)"
  attribute_measured: "growth"
  val: 41.4
- compound: "CNC(=O)Oc1ccc(C(C)(C)C)cc1OC(=O)NC"
  attribute_measured: "growth"
  val: 96.3
- compound: "CC1(C)N=C(N)N=C(N)N1c1ccc(OCCCNC(=O)Nc2ccc(S(=O)(=O)F)cc2)c(Cl)c1"
  attribute_measured: "growth"
  val: 54.3

* * *

growth overview
System: A549/ATCC NSCLC
Assay: NCI-60 one-dose screen, 48 h (100 = growth as untreated, 0 = no growth, -100 = all killed)
Conditions: 10 µM unless noted
Compounds without any hit were thinned out: in the full panel of roughly 83,000, 20% have a hit.
attribute_measured: growth (%)

- compound: "COC(=O)[C@@H](C)C[C@H](Cc1ccc(F)cc1)NC(=O)c1csc([C@@H](C[C@H](C(C)C)N(C)C(=O)[C@@H](NC(=O)[C@H]2CCCCN2C)C2CC2)OC(C)=O)n1"
  attribute_measured: "growth"
  val: 20.1
- compound: "CN(C)C(=O)Oc1ccccc1-c1ccccc1"
  attribute_measured: "growth"
  val: 87.7
- compound: "NC(=O)CNc1ccc([As]=[As]c2ccc(NCC(N)=O)cc2)cc1 (centres undefined)"
  attribute_measured: "growth"
  val: 81
- compound: "O=C1C2C(C(=O)[N]1[Hg][c]1ccccc1)C1(Cl)C(Cl)=C(Cl)C2(Cl)C1(Cl)Cl (centres undefined)"
  attribute_measured: "growth"
  val: 78.7
- compound: "O=C([O][Hg][c]1ccccc1)c1ccccc1"
  attribute_measured: "growth"
  val: 76.2
- compound: "O=C(Nc1ccc([N+](=O)[O-])cc1)C(Cl)(Cl)Cl"
  attribute_measured: "growth"
  val: 94
- compound: "O=P(Oc1ccc(Cl)cc1)(N1CC1)N1CC1"
  attribute_measured: "growth"
  val: 60.2
- compound: "CC(C)=CCc1c(O)c(C(=O)CC(C)C)c(O)c2c(-c3ccccc3)cc(=O)oc12"
  attribute_measured: "growth"
  val: 54.6
- compound: "ClCCN(CCCl)c1ccc(/C=N/Nc2ncnc3nc[nH]c23)cc1"
  attribute_measured: "growth"
  val: 87.7

* * *

growth overview
System: PC-3 prostate
Assay: NCI-60 one-dose screen, 48 h (100 = growth as untreated, 0 = no growth, -100 = all killed)
Conditions: 10 µM unless noted
Method: Growth inhibition of the PC-3 human tumor cell line is measured as a screen for anti-cancer activity. Cells are grown in 96 well plates and exposed to the test compound for 48 hours. Compounds are tested at a single concentration, which is 10^-5 M for most compounds. The reported endpoint is percent growth (GI% or GIPRCNT), where numbers from 0 - 100% represent growth inhibition, and numbers from -100% - 0 represent cell death. For example, a value of 40 represents 60% growth inhibition. […]
Compounds without any hit were thinned out: in the full panel of roughly 83,000, 20% have a hit. The source made the active and inactive calls. The calls were made as follows: active = growth percent below 10; inactive = the rest.

- molecule: "CC(C)(C)C(=O)OCOP(=O)(NCc1ccccc1)C1CCCN(O)C1=O (stereo unspecified)"
  growth: "67.7% (inactive)"
- molecule: "COC(=O)[C@H](C[C@H](Cc1ccccc1)NC(=O)c1csc([C@@H](C[C@H](C(C)C)N(C)C(=O)[C@@H](NC(=O)[C@H]2CCCCN2C)C(C)C)OC(C)=O)n1)NC(=O)OCc1ccccc1"
  growth: "32.4% [8.5 µM] (inactive)"
- molecule: "Cc1ccc(S(=O)(=O)C(Cl)(Cl)Cl)cc1"
  growth: "67.4% (inactive)"
- molecule: "O=C(N/N=C/c1ccc(N(CCCl)CCCl)cc1)c1cccc2ccccc12"
  growth: "61.5% (inactive)"
- molecule: "COc1cc(/C=C\\c2cc(OC)c(OC)c(OC)c2)cc(NS(=O)(=O)c2cccc(Cl)c2)c1OC"
  growth: "35.1% (inactive)"
- molecule: "CC(=O)O[C@H]1C(=O)[C@@]2(C)[C@H]([C@H](OC(=O)c3ccccc3)[C@]3(O)C[C@H](OC(=O)[C@H](OC(=O)OCC4COC(C)(C)O4)[C@@H](NC(=O)c4ccccc4)c4ccccc4)C(C)=C1C3(C)C)[C@]1(OC(C)=O)CO[C@@H]1C[C@@H]2O (stereo partly specified)"
  growth: "38.7% (inactive)"
- molecule: "CN1CCC(O)(c2ccc(F)cc2)C(C(=O)c2ccc(F)cc2)C1 (stereo unspecified)"
  growth: "98.4% (inactive)"
- molecule: "[Cl][Hg][c]1cc[c]([Hg][Cl])o1"
  growth: "51.3% (inactive)"
- molecule: "CC(C)=CCc1c(O)c(C(=O)CC(C)C)c(O)c2c(-c3ccccc3)cc(=O)oc12"
  growth: "19.6% (inactive)"
- molecule: "ClCCN(CCCl)c1ccc(/C=N\\N=C\\c2ccc(N(CCCl)CCCl)cc2)cc1"
  growth: "34.3% (inactive)"
- molecule: "CCOC(=S)S[C@H]1C[C@@H]2[C@H](CC[C@]3(C)C(=O)CC[C@@H]23)[C@@]2(C)CCC(=O)C=C12"
  growth: "106% (inactive)"
- molecule: "C=C1C(=O)O[C@H]2[C@H]1CC/C(COC(=O)C(=O)c1cn(Cc3ccccc3)c3ccccc13)=C\\CC[C@@]1(C)O[C@@H]21"
  growth: "-57.9% (active)"
- molecule: "O=C1C(Cl)=C(N2CCOCC2)C(=O)c2ccccc21"
  growth: "71.9% (inactive)"
- molecule: "Cn1cc(-c2csc(-c3cn(CCN4CCOCC4)c4ccccc34)n2)c2cccnc21"
  growth: "20.5% (inactive)"
- molecule: "CC(C)[C@@H]1NC(=O)[C@]2(C)CSC(=N2)c2csc(n2)CNC(=O)C[C@@H](/C=C/CCS)OC1=O"
  growth: "17% (inactive)"
- molecule: "C=CC[n+]1ccc(-c2cc[n+](CC=C)cc2)cc1"
  growth: "90.9% (inactive)"
